Where these numbers come from: the RNAGym collection of RNA variant scans (doi:10.1073/pnas.2313332121)

B1: TPR t1 (parent)
chain: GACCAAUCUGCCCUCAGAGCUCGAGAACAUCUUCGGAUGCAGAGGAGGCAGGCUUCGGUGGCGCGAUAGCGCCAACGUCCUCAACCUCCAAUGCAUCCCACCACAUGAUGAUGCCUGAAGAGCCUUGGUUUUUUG

# Variants of: B1
# experiment: polymerase ribozyme fitness, log enrichment relative to wild type (log ratio); higher = more active; in vitro selection for triplet polymerase activity
Threshold check on polymerase ribozyme fitness (log ratio): at or above -1 gives 1.0, strictly below gives 0.0.

Worked examples, 4 variants total:
>>> assignedcategory("C11G U126A")
1.0
>>> assignedcategory("G63A C97U")
0.0
>>> assignedcategory("G60C C82A A105G U131A")
0.0
>>> assignedcategory("G10U A29G G52U C79G")
0.0

Pending variant:
Request: Tell me whether polymerase ribozyme fitness (log ratio) is at least -1 here: C86U A119U
Result: 1.0
